Test system: DDD107498-resistant P. falciparum lines
measurement protocol: SYBR Green growth assay on DDD107498-selected resistant lines
Assay type: cell-based
assay context: Plasmodium falciparum, DD2, read-out: DDD107498 IC50, WT Dd2
property: pIC50
Keep it numeric: pIC50 is minus log10 of the concentration in mol/L.

The recorded pIC50 for entry O=C(NCCN1CCCC1)c1cc(-c2ccc(CN3CCOCC3)cc2)nc2ccc(F)cc12 equals 9.85

---

Tested on: GFP-transfected P. berghei ANKA strain
assay context: 3 mg/kg, oral single dose
Hi there, I'd appreciate the recorded Survival days for every entry that follows.
Express it in days; write the number only.

The recorded Survival days for entry C[C@H]1[C@H](OC(=O)CCC(=O)O)O[C@@H]2O[C@@]3(C)CC[C@H]4[C@H](C)CC[C@@H]1[C@@]24OO3 [Artesunate] equals 6

The recorded Survival days for entry O=C(NCCN1CCCC1)c1cc(-c2ccc(CN3CCOCC3)cc2)nc2ccc(F)cc12 equals 9

The recorded Survival days for entry CO[C@H]1O[C@@H]2O[C@@]3(C)CC[C@H]4[C@H](C)CC[C@@H]([C@H]1C)[C@@]24OO3 equals 6

The recorded Survival days for entry C[C@H]1[C@@H](O)O[C@@H]2O[C@@]3(C)CC[C@H]4[C@H](C)CC[C@@H]1[C@@]24OO3 [Dihydroartemsinin] equals 7

The recorded Survival days for entry OC(c1cc(C(F)(F)F)nc2c(C(F)(F)F)cccc12)C1CCCCN1 (stereo not drawn) equals 7

The recorded Survival days for entry CCN(CC)CCCC(C)Nc1ccnc2cc(Cl)ccc12 (stereo not drawn) equals 7

---

measurement protocol: Rat pharmacokinetics
Type: in vivo
assay context: male, Sprague Dawley, rat, blood, po, 5 mg/kg
property: bioavailability (%)
Express it in %; write the number only.

The recorded bioavailability for entry O=C(NCCN1CCCC1)c1cc(-c2ccc(CN3CCOCC3)cc2)nc2ccc(F)cc12 equals 84

---

Hi there, I'd appreciate the recorded Survival days for every entry that follows.
Test system: GFP-transfected P. berghei ANKA strain
assay context: 10 mg/kg, oral single dose
Express it in days; write the number only.

The recorded Survival days for entry CO[C@H]1O[C@@H]2O[C@@]3(C)CC[C@H]4[C@H](C)CC[C@@H]([C@H]1C)[C@@]24OO3 equals 6

The recorded Survival days for entry OC(c1cc(C(F)(F)F)nc2c(C(F)(F)F)cccc12)C1CCCCN1 (stereo not drawn) equals 16

The recorded Survival days for entry C[C@H]1[C@@H](O)O[C@@H]2O[C@@]3(C)CC[C@H]4[C@H](C)CC[C@@H]1[C@@]24OO3 [Dihydroartemsinin] equals 6

The recorded Survival days for entry O=C(NCCN1CCCC1)c1cc(-c2ccc(CN3CCOCC3)cc2)nc2ccc(F)cc12 equals 14

The recorded Survival days for entry CCN(CC)CCCC(C)Nc1ccnc2cc(Cl)ccc12 (stereo not drawn) equals 7

The recorded Survival days for entry C[C@H]1[C@H](OC(=O)CCC(=O)O)O[C@@H]2O[C@@]3(C)CC[C@H]4[C@H](C)CC[C@@H]1[C@@]24OO3 [Artesunate] equals 6

---

Tested on: liver schizont forms of P. yoelii
measurement protocol: P. yoelii liver stage assay
Format: cell-based
assay context: Plasmodium yoelii, read-out: EC50, P. yoelii liver stage, liver schizont forms
pEC50: −log10 of the molar value.
property: pEC50

Record for O=C(NCCN1CCCC1)c1cc(-c2ccc(CN3CCOCC3)cc2)nc2ccc(F)cc12 under target or system liver schizont forms of P. yoelii: pEC50 reported as ~9.00
